biological target: human ALK5 (ALK5 T204D kinase domain) (Homo sapiens, UniProt P36897, T204D); construct: The kinase domain of human ALK5 (amino acids 200-503); assay: ALK5 kinase assay, [33P] phosphate incorporation into casein; conditions: casein substrate, 1 μM unlabelled ATP
Assign labels as follows, please: True for IC50 below 70 nM; False for IC50 equal to or exceeding 70 nM.

Previously resolved entries follow.
- CC(C)(O)c1cc(-c2cncc(-c3ccc(CN4CCNCC4)cc3)c2)cc(-c2ccccn2)n1: True
- CC(C)N1CCN(Cc2ccc(-c3cncc(-c4cc(-c5ccccn5)nc(C(C)(C)O)c4)c3)cc2)CC1: True
- Cn1cc(-c2cncc(-c3cc(-c4ccccn4)nc(C(C)(C)O)c3)c2)cn1: False
- CNc1cc(-c2cncc(-c3ccnc(OC)c3)c2)cc(-c2ccccn2)n1: False
- Cc1cccc(-c2cc(-c3cncc(-c4ccc(CN5CCN(C(C)C)CC5)cc4)c3)cc(N)n2)n1: False
- CC(C)(C)N1CCN(Cc2ccc(-c3cncc(-c4cc(NC5CC5)nc(-c5ccccn5)c4)c3)cc2)CC1: True

Consider the additional compound presented here.
Query: Is IC50 of C[C@@H]1CN(Cc2ccc(-c3cncc(-c4cc(-c5ccccn5)nc(C(C)(C)O)c4)c3)cc2)CCN1 strictly below 70 nM?
Response: True

* * *

Molecular target: human ALK5 (ALK5 T204D kinase domain) (Homo sapiens, UniProt P36897, T204D)
Construct: The kinase domain of human ALK5 (amino acids 200-503)
Sequence (P36897 200-503 T204D): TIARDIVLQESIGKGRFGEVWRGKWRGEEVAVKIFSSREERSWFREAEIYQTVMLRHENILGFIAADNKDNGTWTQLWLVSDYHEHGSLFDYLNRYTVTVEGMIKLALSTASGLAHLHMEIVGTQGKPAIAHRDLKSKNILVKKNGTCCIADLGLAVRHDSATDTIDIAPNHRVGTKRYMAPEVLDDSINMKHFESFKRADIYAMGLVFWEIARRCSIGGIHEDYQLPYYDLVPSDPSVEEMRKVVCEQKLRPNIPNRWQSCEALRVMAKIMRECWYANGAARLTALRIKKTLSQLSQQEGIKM
Assay: ALK5 kinase assay, [33P] phosphate incorporation into casein
Conditions: casein substrate, 1 μM unlabelled ATP
Listing of recorded pIC50 by entry.
Quick note: pIC50 means taking -log10 of the concentration in moles per liter.

Solved cases below.
* Cc1ccc(-c2cc(-c3cccnc3)cc(NCCc3c[nH]c4ccccc34)n2)o1 | 7.64
* O=C(c1ccc(-c2cncc(-c3cc(NC4CC4)nc(-c4ccccn4)c3)c2)cc1)N1CCNCC1 | 8.10

Query: Which pIC50 is reported for this compound? CNc1cc(-c2cncc(-c3cccc(CN4CCN(C)CC4)c3)c2)cc(-c2ccccn2)n1
Response: 7.80

Query: Which pIC50 is reported for this compound? Cc1cc(CN2CCN(C(C)C)CC2)ccc1-c1cncc(-c2cc(-c3ccccn3)nc(C(C)(C)O)c2)c1
Response: 7.15

* * *

biological target: human ALK5 (ALK5 T204D kinase domain) (Homo sapiens, UniProt P36897, T204D); construct: The kinase domain of human ALK5 (amino acids 200-503); test: ALK5 kinase assay, [33P] phosphate incorporation into casein; settings: casein substrate, 1 μM unlabelled ATP
Listing of recorded IC50 by entry.
Kindly answer with a numeric value in nM, unit omitted.

Solved cases below.
- CN(C)[C@@H]1CCN(Cc2ccc(-c3cncc(-c4cc(NC5CC5)nc(-c5ccccn5)c4)c3)cc2)C1: 235
- CCNc1cc(-c2cncc(-c3cc(C)cc(CN)c3)c2)cc(-c2ccccn2)n1: 48
- c1ccc(-c2cc(-c3cncc(-c4ccc(CN5CCNCC5)cc4)c3)cc(NC3CC3)n2)nc1: 89
- c1ccc(-c2cc(-c3cccnc3)cc(NCCc3cccc4[nH]ccc34)n2)nc1: 29
- CC(C)Nc1cc(-c2cncc(-c3cccc(CN4CCN(C(C)(C)C)CC4)c3)c2)cc(-c2ccccn2)n1: 357

Query: Which IC50 is reported for this molecule? CNc1cc(-c2cncc(-c3ccc(CN4CCN(C(C)C)CC4)cc3)c2)cc(-c2ccccn2)n1
Response: 14

Query: Which IC50 is reported for this molecule? CNc1cc(-c2cncc(-c3cccc(N4CCCC4)c3)c2)cc(-c2ccccn2)n1
Response: 209

Query: Which IC50 is reported for this molecule? c1cncc(-c2cc(NCCc3c[nH]c4ccccc34)nc(-c3ccco3)c2)c1
Response: 16

* * *

Target: human ALK5 (ALK5 T204D kinase domain) (Homo sapiens, UniProt P36897, T204D)
Construct: The kinase domain of human ALK5 (amino acids 200-503)
Sequence (P36897 200-503 T204D): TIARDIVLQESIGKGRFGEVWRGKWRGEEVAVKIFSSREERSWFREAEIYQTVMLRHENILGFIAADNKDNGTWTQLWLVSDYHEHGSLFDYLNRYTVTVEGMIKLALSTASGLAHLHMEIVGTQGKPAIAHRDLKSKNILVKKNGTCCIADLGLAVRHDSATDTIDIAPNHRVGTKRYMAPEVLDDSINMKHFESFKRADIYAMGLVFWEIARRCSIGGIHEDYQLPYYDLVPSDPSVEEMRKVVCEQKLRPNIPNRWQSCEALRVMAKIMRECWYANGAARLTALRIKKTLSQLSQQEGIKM
Assay: ALK5 kinase assay, [33P] phosphate incorporation into casein
Conditions: casein substrate, 1 μM unlabelled ATP
pIC50: −log10 of the molar value.
Label condition met for high-side pIC50 (at or above 7) and condition not met for low-side pIC50 (below it).

* Oc1cccc(CNc2cc(-c3cncc(Br)c3)cc(-c3ccccn3)n2)c1 [Example 1.23] | condition not met
* c1ccc(-c2cc(-c3cccnc3)cc(NCc3cccc4[nH]ccc34)n2)nc1 [Example 1.15] | condition not met
* CC1(C)CN(Cc2ccc(-c3cncc(-c4cc(-c5ccccn5)nc(C(C)(C)O)c4)c3)cc2)CCN1 [Example 2.92] | condition met
* CC(C)N1CCN(Cc2ccc(-c3cncc(-c4cc(-c5ccccn5)nc(C(C)(C)C)c4)c3)cc2)CC1 [Example 2.95] | condition not met
* [2H]C([2H])([2H])N1CCN(C(=O)c2ccc(-c3cncc(-c4cc(-c5ccccn5)nc(C(C)(C)O)c4)c3)cc2)CC1 [Example 2.83] | condition met

Query: API: above_or_equal(metric=pIC50, cutoff=7) for item CC(C)N1CCN(Cc2ccc(-c3cncc(-c4cc(N)nc(-c5ccccn5)c4)c3)cc2)CC1 [Example 2.72]
Response: condition met

Query: API: above_or_equal(metric=pIC50, cutoff=7) for item CNc1cc(-c2cncc(-c3ccc(CN4CCN(C)CC4)cc3)c2)cc(-c2ccccn2)n1 [Example 2.26]
Response: condition met

* * *

molecular target: human ALK5 (ALK5 T204D kinase domain) (Homo sapiens, UniProt P36897, T204D); construct: The kinase domain of human ALK5 (amino acids 200-503); test: ALK5 kinase assay, [33P] phosphate incorporation into casein; settings: casein substrate, 1 μM unlabelled ATP
assay_metric: log10 of IC50 (log10 of the value in nM)
Please be aware that the numbers have been log10-transformed from IC50 in nM.

- CC1CN(C(=O)c2ccc(-c3cncc(-c4cc(-c5ccccn5)nc(C(C)(C)O)c4)c3)cc2)CC(C)N1C (stereo not shown): 2.14
- CC(C)(C)N1CCN(Cc2ccc(-c3cncc(-c4cc(N)nc(-c5ccccn5)c4)c3)cc2)CC1: 1.54
- CNc1cc(-c2cncc(-c3ccc(C(=O)N4CCN(C)CC4)cc3)c2)cc(-c2cccc(C)n2)n1: 1.72
- CC(C)(O)c1cc(-c2cncc(-c3cnn(C4CCOCC4)c3)c2)cc(-c2ccccn2)n1: 1.30
- Cc1ccc(-c2cc(-c3cncc(-c4ccc(CN5CCN(C(C)C)CC5)cc4)c3)cc(NC3CC3)n2)o1: 1.58

Query: Give recorded log10 of IC50 with human ALK5 (ALK5 T204D kinase domain) (Homo sapiens, UniProt P36897, T204D) for the following compound: CC(C)(C)N1CCN(Cc2cccc(-c3cncc(-c4cc(NC5CC5)nc(-c5ccccn5)c4)c3)c2)CC1
Response: 1.81

Query: Give recorded log10 of IC50 with human ALK5 (ALK5 T204D kinase domain) (Homo sapiens, UniProt P36897, T204D) for the following compound: CC(C)N1CCN(Cc2ccc(-c3cncc(-c4cc(NC5CC5)nc(-c5ccccn5)c4)c3)cc2)CC1
Response: 0.60

* * *

target: human ALK5 (ALK5 T204D kinase domain) (Homo sapiens, UniProt P36897, T204D); construct: The kinase domain of human ALK5 (amino acids 200-503); test: ALK5 kinase assay, [33P] phosphate incorporation into casein; conditions: casein substrate, 1 μM unlabelled ATP
assay_metric: IC50 (nM)
Kindly answer with a numeric value in nM, unit omitted.

* [2H]C([2H])([2H])Nc1cc(-c2cncc(-c3ccc(CN4CCN(C(C)C)CC4)cc3)c2)cc(-c2ccccn2)n1 | 11

Query: Which IC50 is reported for this molecule? CNc1cc(-c2cncc(-c3ccc(CN4CCNCC4)cc3)c2)cc(-c2ccccn2)n1
Response: 10

Query: Which IC50 is reported for this molecule? CNc1cc(-c2cncc(-c3ccc(N4CCN(C)CC4)cc3)c2)cc(-c2ccccn2)n1
Response: 30

Query: Which IC50 is reported for this molecule? c1cncc(-c2cc(NCc3cccc4[nH]ccc34)nc(-c3ccco3)c2)c1
Response: 19

Query: Which IC50 is reported for this molecule? CCNc1cc(-c2cncc(-c3cccc(CN4CCN(C(C)C)CC4)c3)c2)cc(-c2ccccn2)n1
Response: 42

Query: Which IC50 is reported for this molecule? CC(C)Nc1cc(-c2cncc(-c3ccc(CN4CCN(C(C)(C)C)CC4)cc3)c2)cc(-c2ccccn2)n1
Response: 22

Query: Which IC50 is reported for this molecule? Nc1cc(-c2cncc(-c3ccc(CN4CCNCC4)cc3)c2)cc(-c2ccccn2)n1
Response: 24

Query: Which IC50 is reported for this molecule? Cc1cccc(-c2cc(-c3cncc(-c4ccc(CO)cc4)c3)cc(NC3CC3)n2)n1
Response: 28

Values compiled from patent US8343966B2.
